assay: yeast display, Sf9 membrane polyspecificity reagent, FACS + sequencing; frameworks hold sequencing errors
ASSAY_ENDPOINT: polyreactivity (PSR sort gate)

The cases that follow already have their polyreactivity (PSR sort gate) on record.
- ITEM_SEQUENCE: "QVQLVESGGGLVQAGGSLRLSCAASGFTFYRYTMGWYRPARGKESELVARITYSGGSTYYADSVKGRFTISRDNAKNTVYLQLNSVKPVDTAVYYCNARSDFYSRYGYKYDYWGQGTQVTVSS"
  ASSAY_ENDPOINT: "polyreactivity (PSR sort gate)"
  MEASURED: "high polyreactivity"
- ITEM_SEQUENCE: "QVQLVESGGGLVKAGGSLRLSCAASGSSFSSYAMGWYREAPGKEWELVAAISGGGNTYYADSVKGRFTISSDNAKNTVYLQMNSLKPEDTAVYYCNKSRLEPEYGYWGQGTQVTVSS"
  ASSAY_ENDPOINT: "polyreactivity (PSR sort gate)"
  MEASURED: "low polyreactivity"
- ITEM_SEQUENCE: "QVQLVESGGGLVQAGGSLRLSCAASGRILKWNARGWYRHAPGKERELVAAISQSGGSTYYADSVKGRFTISRDNAKNTVYLQMNSLKPEDTAVYYCAARRGSKFWGQGTQVTVSS"
  ASSAY_ENDPOINT: "polyreactivity (PSR sort gate)"
  MEASURED: "low polyreactivity"
- ITEM_SEQUENCE: "QVQLVESGGGLVQAGGSLRLTCAASGSTFGVYAMGWYRQAPRKDRELFAAISSSTGSTYYADSVKGRFTISRHKAKNTVYLQRNSLKPEDTAVYYRAAAGYGKVRGDYWGQGTQVTVSS"
  ASSAY_ENDPOINT: "polyreactivity (PSR sort gate)"
  MEASURED: "low polyreactivity"
- ITEM_SEQUENCE: "QVQLVESGGGLVQAGGSLRLSCAASGSTFDSYAMGWYRQAPGKERELVAAISSGGSTNYADSVKGRFTISRDNAKNTVYLQMNSLKPEDTAVYYCAAYGGHIWWLYRHYGYDYWGQGTQVTVSS"
  ASSAY_ENDPOINT: "polyreactivity (PSR sort gate)"
  MEASURED: "low polyreactivity"
- ITEM_SEQUENCE: "QVQIVESGGGLVQAGGSLRLSCAASGLTFRSYTIGWYRHAPGKERELVAAISSGGSTYYADSVKGRFTISRDNAKNTVYLQMNSRKPEDTAVYFCAAPRGHGKYYSWGQGTQVTVSS"
  ASSAY_ENDPOINT: "polyreactivity (PSR sort gate)"
  MEASURED: "high polyreactivity"

# input for lookup
QUERY: // returns reported polyreactivity (PSR sort gate) for input EVQLVESGGGLVQAGGSLRLSCAAYGFTFVVYDMGWYRQAPGKERELVAAISRRGGNTYYADSVKGRFTISRDNAKNTVYLQMNSLKPEDTAVYYCNAVRTRKAYDYWGQGTQVTVSS
RESULT: low polyreactivity

====

assay: yeast display, Sf9 membrane polyspecificity reagent, FACS + sequencing; frameworks hold sequencing errors
ASSAY_ENDPOINT: polyreactivity (PSR sort gate)

The cases that follow already have their polyreactivity (PSR sort gate) on record.
- ITEM_SEQUENCE: "QVQLVESGRGLDQAGGSHRISCAGSARIFTIYAMGCYRQAPGKERELVAAISKSGGRTYYADSVKGRFTISRDNAKNTVYVQMNSLKPEDTAVYYCAARWRSWRYKYDYWGQGTQVTVSS"
  polyreactivity (PSR sort gate): "high polyreactivity"
- ITEM_SEQUENCE: "QVELVESGGGLVQPGGSLRLSCAASGSTFYYYAMGWYRQAPGKERELVATISSGSSTNYADSVKGRFTISRDNAKNTVYLQMNSLKPEDTAVYYCAADRWYITLSIDATISYEYWGQGTQVTVSS"
  polyreactivity (PSR sort gate): "low polyreactivity"
- ITEM_SEQUENCE: "QVQLVESGGGLVQAGGSLRLSCAASGRTFGHNAMGRYRQAPGKEREFVAAITRRGGSTYYADSVKGRFTISRDNAKNTVYLQMNSLKPEDTAVYYCATRDYVNGPGIFNYWGQGTQVTVSS"
  polyreactivity (PSR sort gate): "low polyreactivity"
- ITEM_SEQUENCE: "QVQLVESGGGLVQAGGSLRLSCAASGFTFEGNAMGWYRQAPGKEREFVAAITSNGGGTYYADSVKGRFTISRDNAKNTVYLQMNSLKPEDTAVYDCAATYWTWYSWYDYWGQGTQVTVSS"
  polyreactivity (PSR sort gate): "high polyreactivity"

# input for lookup
QUERY: // returns reported polyreactivity (PSR sort gate) for input QVQLVESGGGLVQAGGSLRLSCAASGSTFSGNARGWDRQAPGKERELVAAISRRGGSTNYADSVKGRFTISRDNAKYTVYLKMNSLKPEDTAVYYCNKGDYRSAYRHIEYGYWGQGTQVTVSS
RESULT: low polyreactivity

====

experiment: yeast display, Sf9 membrane polyspecificity reagent, FACS + sequencing; frameworks hold sequencing errors
ASSAY_ENDPOINT: polyreactivity (PSR sort gate)

The cases that follow already have their polyreactivity (PSR sort gate) on record.
- ITEM_SEQUENCE: "QVQLVESGGGLVQAGGSLRLICAASGNTFVDYAMGWYRQAPGKELELVAAISRSGGSTYADSVKGRFTISRDNAKNTVYLQMNSLKPEDTAVYYCAAYSGVGYLWFDYWGQGTQVTVSS"
  polyreactivity (PSR sort gate): "low polyreactivity"
- ITEM_SEQUENCE: "QVHLVESGGGLVQAGGSLRLSCAASGRTFRDYTMGWYRQAPGKEREFVAAISSTGSTNYADSVKGRFTISRDNAKNTVYLQMNSLKPEDTAVYYCAADGRRWLGWYGYYYWGQGTQVTVSS"
  polyreactivity (PSR sort gate): "low polyreactivity"
- ITEM_SEQUENCE: "QVQLVESGGGLVQAGGSLRLSCASSGRIFSQNAMGWYRQAPGKERELVAAISGGSTNYADSVKGRFTISRDNAKNPVYLQMNSLKPEDTAVYYCAADAPFKMDYWGQGTQVTVSS"
  polyreactivity (PSR sort gate): "low polyreactivity"
- ITEM_SEQUENCE: "QVQLVESGGGLVQAGGSLRLSCAASGSTFTWNAMGWYRQAPGKERELVAAISGDGGSTYYADSVKGRFTISRDNAKNTVYLQMNSLKPEDTAVYYCAASSAHIYSYRYNYWGQGTQVTVSS"
  polyreactivity (PSR sort gate): "low polyreactivity"
- ITEM_SEQUENCE: "QVQHVESGGALVQAGGSLRLSCAASGSTFTRNAMGWDRHAPGKERELVAAITSSGTSTYYADSVKGRFTISRDNAKNTVYLQMNSLKPEATAVYYCAAGIQSTYPKGGYRVTYYYWGQGTQVTVSS"
  polyreactivity (PSR sort gate): "high polyreactivity"
- ITEM_SEQUENCE: "QVQLVESGGGLVQEGGSLRLSCAASGITFPDYAMGWYRQAPGKERELVAAISRGVNTYYADSVKGRFTISRDNAKNTVYLQMNSLKPEDTAVYYCNRRGSSGYDYWGLGTQVTVSS"
  polyreactivity (PSR sort gate): "low polyreactivity"
- ITEM_SEQUENCE: "QVQLVESGGGLVQAGGSLRLSCAASGSTFRPNAMGWYRQAPGKERELVAGISLNGTSTYYADSVKGRFTISRDNAKNTVYLQMNSLKPEDTAVYYCAADYQCGRGAEPYVFFDPEMDYWGQGTQVTVSS"
  polyreactivity (PSR sort gate): "low polyreactivity"
- ITEM_SEQUENCE: "QVHLVESGGGLVQAGGSLRLSCPASGIIFVPNAMGWYRQAPGKEREFVAAISRSGTSTYYADSVKGRFTISRDNAKNTVYLQMNSLKPEDTAVYYCAKSAYRSYSAFGYWGQGTQVTVSS"
  polyreactivity (PSR sort gate): "high polyreactivity"

QUERY: // returns reported polyreactivity (PSR sort gate) for input QVQLVESGGGLVQAGGSLRLSCAASGLTFYYYAMGWYRQAPGKERELVAAISGTGGSAYYADSVKGRFTISRDNAKNTVYLQMNSLKPEDTAVYYCAARYLRYKGTGATSAYDYWGQGTQVTVSS
RESULT: high polyreactivity

QUERY: // returns reported polyreactivity (PSR sort gate) for input QVQLVESGGGLVQEGGSLPLSCAASGSIIWVYAMGWYRQPPGKERELFAAITSGVSTYYADSVKGRFTISRDNAKITVYFQFNRLKPEDSAVYDCAVVGGFRWIRMEYWGQGTQVSVSS
RESULT: low polyreactivity

QUERY: // returns reported polyreactivity (PSR sort gate) for input QVQLVESGGGLVQAGGSLRLSCAASGSIFYGYDMGWYRQAPGKERELVAAITIGGGTTYYADSVKGRFTISRDNAKNTVYLQMNSLKPEDTAVYYCAAEFYYTIYSNKVGYDYWGQGTQVTVSS
RESULT: high polyreactivity

====

experiment: yeast display, Sf9 membrane polyspecificity reagent, FACS + sequencing; frameworks hold sequencing errors
ASSAY_ENDPOINT: polyreactivity (PSR sort gate)

- ITEM_SEQUENCE: "QVQLVESGGGLVQAGGSLRLICAASGSIFRSYAMGWYRPAPGKERELVAAISSGGRTKYADSVKGRLTISRDNAKNTVYLQMNSLKPEDSAVYYCAARSVSATADFHYWGQGTQVTVSS"
  MEASURED: "high polyreactivity"
- ITEM_SEQUENCE: "QVQLVESGGGLVQAGGSLRLSCAASGFTISAYAMGWYRQAPGKERELVAAITSGGGSTRYADSVKGRFTISRDNAKNTVYLQMNSLKPEDTAVYYCAARNHRYKFNYWGQGTQVTVSS"
  MEASURED: "high polyreactivity"
